Data origin, for the record: PubChem BioAssay (NCI)

Give measured TGI for each item. Keep answers brief.
Test system: U251 CNS
EXPERIMENTAL_DETAILS: NCI tumour cell line growth inhibition, 48 h

Before answering, review these 2 worked examples.
| COMPOUND | TARGET_OR_SYSTEM | RECORDED_VALUE |
| --- | --- | --- |
| CCC1(O)C(=O)OCc2c1cc1n(c2=O)Cc2cc3ccccc3nc2-1 (stereo not drawn) | U251 CNS | 0.57 µM |
| Cc1c(OC(C)C(=O)O)ccc2c(-c3ccccc3)cc(=O)oc12 (stereo not drawn) | U251 CNS | > 100 µM |

-- ask Complete the entry with TGI for Cn1nc2ccc([N+](=O)[O-])c(Cn3nnc4ccccc43)c2n1
-- reply > 100 µM

---

System: DU-145 prostate
EXPERIMENTAL_DETAILS: NCI tumour cell line growth inhibition, 48 h; in the data active = GI50 below about 0.43 µM; inactive = the rest
Thanks in advance; please answer with one of these: class 1 (active), class 0 (inactive)

| COMPOUND | QUALITATIVE_LABEL |
| --- | --- |
| O=S(=O)(Nc1ccc(Br)cc1)c1ccc(-c2cnc(C3CC3)o2)cc1 | class 0 |
| CCCCN(CCCC)Cc1cc(Nc2ccnc3cc(Cl)ccc23)ccc1O | class 0 |
| COc1cc(C)ccc1C(=O)c1ccc(C)cc1OC | class 0 |
| c1ccc(-c2nc(-c3ccccn3)nc(-c3ccccn3)n2)nc1 | class 0 |

-- ask What was the test verdict on CCN1C(=O)N(CC)C2C1NN=c1s/c(=C\c3ccc(Cl)cc3Cl)c(=O)n12 (stereo not given) ?
-- reply class 1

---

Tested on: HL-60(TB) leukemia
EXPERIMENTAL_DETAILS: NCI tumour cell line growth inhibition, 48 h
Give measured TGI for each item. Keep answers brief.
Give bare numbers, in µM.

Before answering, review these 2 worked examples.
| COMPOUND | TARGET_OR_SYSTEM | TGI [µM] |
| --- | --- | --- |
| CCOc1ccccc1CCN=C1NC(=O)/C(=C/c2ccc3ncccc3c2)S1 | HL-60(TB) leukemia | 2.65 |
| Clc1ccc(-c2cn3ccnc3c(-c3ccc(Cl)cc3)n2)cc1 | HL-60(TB) leukemia | 19 |

Would you be so kind as to report TGI for each listed record?
1. Fc1ccc(C(OCCN2CCN(CCCc3ccccc3)CC2)c2ccc(F)cc2)cc1
2. Cc1ccc2cnc(N)c(C#Cc3cc(C(=O)Nc4ccc(CN5CCN(C)CC5)c(C(F)(F)F)c4)cnc3C)c2c1
3. Nc1nc2ccc(-c3nc4ccc5[nH]ncc5c4c4c3CCC4)cc2s1

-- reply
16
6.58
7.93

---

Test system: T-47D breast
EXPERIMENTAL_DETAILS: NCI tumour cell line growth inhibition, 48 h
Give measured TGI for each item. Keep answers brief.

Before answering, review these 3 worked examples.
| MOLECULE | TGI |
| --- | --- |
| COC1CC(N)(c2ccccc2)C(O)C(C)O1 (configuration not stated) | > 100 µM |
| O=C1[C@H](O)[C@@H]2C(O)O[C@H]3[C@@H]2N1C[C@H]3[Si](c1ccccc1)(c1ccccc1)c1ccccc1 (some centres not stated) | > 100 µM |
| O=C1C=CC(=O)c2c1ccc1c3ccccc3n(Cc3ccc([N+](=O)[O-])cc3)c21 | > 100 µM |

Would you be so kind as to report TGI for each listed record?
1. CCOc1ccccc1CCN=C1NC(=O)/C(=C/c2ccc3ncccc3c2)S1
2. Cc1ccc(C(=N)c2ccccc2Cc2cccc3ccccc23)c2ccccc12
3. N#CC(C#N)=C/C=C(\Cl)c1ccc(Cl)cc1
4. O=c1[nH]/c(=C/c2ccc(OCc3ccccc3)cn2)c(=O)[nH]/c1=C/c1ccccc1

-- reply
["> 25 µM", "> 100 µM", "49.1 µM", "> 100 µM"]
